Each recorded value in this set is attributed to paper PMC6684654.

# MIC per entry
Tested on: NDM-1 E. coli XJ141047
procedure_summary: MIC, broth microdilution
Assay type: cell-based
condition_context: Escherichia coli; MHB, 5 × 10^5 CFU/mL, 16 h, 37 °C; read-out: MIC

Exercise: Please list MIC recorded for the compound C[C@@H](O)[C@H]1C(=O)N2C(C(=O)O)=C(SCCN=CN)C[C@H]12 [Imipenem]
Solution: 32 µg/mL

Exercise: Recall and state the measured MIC for C[C@@H](O)[C@H]1C(=O)N2C(C(=O)O)=C(S[C@@H]3CN[C@H](C(=O)N(C)C)C3)[C@H](C)[C@H]12 [Meropenem] .
Solution: 64 µg/mL

Exercise: Assign MIC to the following record: CCN1CCN(C(=O)N[C@@H](C(=O)N[C@@H]2C(=O)N3[C@@H]2SC(C)(C)[C@@H]3C(=O)O)c2ccccc2)C(=O)C1=O [Piperacillin]
Solution: > 256 µg/mL

Exercise: Please give the documented MIC of Cc1onc(-c2ccccc2)c1C(=O)N[C@@H]1C(=O)N2[C@@H]1SC(C)(C)[C@@H]2C(=O)O [Oxacillin]
Solution: > 256 µg/mL

* * *

Tested on: E. coli ATCC25922
procedure_summary: Antibiotic susceptibility (MIC), automated identification system
Format: cell-based
condition_context: Escherichia coli, ATCC25922; Supplementary Table 1
recorded_endpoint: MIC

>>> result("C[C@@H](O)[C@H]1C(=O)N2C(C(=O)O)=C(S[C@@H]3CN[C@H](C(=O)N(C)C)C3)[C@H](C)[C@H]12 [Meropenem]")
"≤ 1 µg/mL"
>>> result("C[C@H]1[C@H](NC(=O)/C(=N\\OC(C)(C)C(=O)O)c2csc(N)n2)C(=O)N1S(=O)(=O)O [Aztreonam]")
"≤ 2 µg/mL"

Exercise: Please indicate recorded MIC of Cc1nnc(SCC2=C(C(=O)O)N3C(=O)[C@@H](NC(=O)Cn4cnnn4)[C@H]3SC2)s1 [Cefazolin] measured with E. coli ATCC25922.
Solution: ≤ 4 µg/mL

Exercise: Fill in MIC for O=C(N[C@H](CO)[C@H](O)c1ccc([N+](=O)[O-])cc1)C(Cl)Cl [Chloramphenicol] tested with E. coli ATCC25922.
Solution: ≤ 4 µg/mL

Exercise: Using E. coli ATCC25922 as the test system, report measured MIC of CN(C)[C@@H]1C(O)=C(C(N)=O)C(=O)[C@@]2(O)C(O)=C3C(=O)c4c(O)cccc4[C@@](C)(O)[C@H]3C[C@@H]12 [Tetracycline] .
Solution: ≤ 2 µg/mL

Exercise: State MIC on E. coli ATCC25922. Entry: CO/N=C(\C(=O)N[C@@H]1C(=O)N2C(C(=O)[O-])=C(C[N+]3(C)CCCC3)CS[C@H]12)c1csc(N)n1 [Cefepime]
Solution: ≤ 2 µg/mL

Exercise: Please tell me the measured MIC for CC1(C)S[C@@H]2[C@H](NC(=O)[C@H](N)c3ccccc3)C(=O)N2[C@H]1C(=O)O [Ampicillin] ; system: E. coli ATCC25922.
Solution: ≤ 4 µg/mL

Exercise: Give measured MIC for COc1c(N2C[C@@H]3CCCN[C@@H]3C2)c(F)cc2c(=O)c(C(=O)O)cn(C3CC3)c12 [Moxifloxacin] (E. coli ATCC25922).
Solution: ≤ 1 µg/mL
